- assayed target: CDK2/CyclinA (Homo sapiens)
- Construct: purchased Upstate Biotechnology
- method description: CDK2 kinase inhibitory activity (Example 306, Protocol A or B)
- Assay type: biochemical
- test parameters: read-out: % inhibition (CDK inhibitory activity)
# if value of inhibition at 0.003 µM reaches 60%, tag y; if it stays below, tag n

- compound: "O=C(Nc1c[nH]nc1-c1nc2ccccc2[nH]1)c1c(F)cc(F)cc1F"
  class: "n"
- compound: "O=C(Nc1c[nH]nc1-c1nc2ccccc2[nH]1)c1c(Cl)cccc1Cl"
  class: "y"
- compound: "O=C(Nc1c[nH]nc1-c1nc2ccccc2[nH]1)c1c(F)cccc1Cl"
  class: "n"
- compound: "Cc1cccc(Cl)c1C(=O)Nc1c[nH]nc1-c1nc2ccccc2[nH]1"
  class: "n"

## Task Kindly determine if inhibition at 0.003 µM recorded for COc1cccc(F)c1C(=O)Nc1c[nH]nc1-c1nc2ccccc2[nH]1 is above or exactly 60%.
## Result n

====

- assayed target: CDK2/CyclinA (Homo sapiens, UniProt P24941)
- method description: CDK2 kinase inhibitory activity (Example 306, Protocol A or B)
- test parameters: protocol of Example 306; read-out: IC50 (CDK inhibitory activity)
attribute measured: IC50
Just so you know, I need the unit written after the number.

- compound: "O=C(Nc1c[nH]nc1-c1nc2ccccc2[nH]1)c1ccccc1 [Compound A, reference compound]"
  assay value: "0.0967 µM"

Please go through the list and note IC50 for each compound.
1. O=C(Nc1c[nH]nc1-c1nc2ccccc2[nH]1)c1c(F)cccc1F
2. Cc1ccc(C(=O)Nc2c[nH]nc2-c2nc3cc(C)c(C)cc3[nH]2)cc1 [Compound B, reference compound]
3. Cc1cc2nc(-c3n[nH]cc3NC(=O)c3c(F)cccc3F)[nH]c2cc1C

## Result
1. 0.0048 µM
2. 3 µM
3. 0.0046 µM
